Tested on: rhinovirus A2
Test: Antiviral activity against Rhinovirus A2 infected in human HeLa cell line assessed as inhibition of virus-induced cytopathic effect measured after 72 hrs by crystal violet uptake assay
Type: functional, organism-based
Details: Rhinovirus A, HeLa, 72 h; read-out: IC50
Metric: pIC50
Keep it numeric: pIC50 is minus log10 of the concentration in mol/L.

CN(C)C(=O)c1cc(CCCOc2ccc(-c3noc(C(F)(F)F)n3)cc2-n2cccc2)on1	5.49
COc1cc(-c2noc(C(F)(F)F)n2)ccc1OCCCc1cc(C(=O)N(C)C)no1	5.71
Cc1cc(-c2noc(C(F)(F)F)n2)cc(C)c1OCCCc1cc(-c2ccccc2)no1	6.12
Cc1cc(-c2noc(C(F)(F)F)n2)cc(C)c1OCCCc1cc(C(=O)NCc2ccccc2)no1	6.64

Now look at this one.
# pIC50 of CN(C)C(=O)c1cc(CCCOc2ccc(-c3noc(C(F)(F)F)n3)cc2F)on1 = 5.42
